Recorded values, source patent US5212187A.

# experimental-system: histamine H2 -receptors (Cavia porcellus, UniProt P47747)
# Construct: isolated spontaneously beating guinea pig right atrium (H2); from tissue; host or cells: isolated spontaneously beating guinea pig right atrium
# Sequence (P47747 whole entry): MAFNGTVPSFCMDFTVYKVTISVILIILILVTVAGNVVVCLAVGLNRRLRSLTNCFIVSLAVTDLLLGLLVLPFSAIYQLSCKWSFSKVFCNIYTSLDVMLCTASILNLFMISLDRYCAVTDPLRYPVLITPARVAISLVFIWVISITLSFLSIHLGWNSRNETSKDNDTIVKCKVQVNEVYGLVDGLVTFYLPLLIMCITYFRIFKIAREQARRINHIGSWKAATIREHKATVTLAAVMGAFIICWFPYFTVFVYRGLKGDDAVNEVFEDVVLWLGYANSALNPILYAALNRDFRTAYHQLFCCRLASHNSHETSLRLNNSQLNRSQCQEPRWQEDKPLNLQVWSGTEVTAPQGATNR
# assay-notes: in vitro histamine H2-antagonism on isolated spontaneously beating guinea pig right atrium
# condition-notes: cumulative concentration/action curves (van Rossum), read-out: H2 -antagonism atrium -log KB (converted)
Listed here are compounds together with their documented Kb.
Express your answer in nM, writing the number without its unit.

Here is how some compounds turned out for Kb.
{"compound": "CN(C)Cc1ccc(CSCCNC(=O)NCCCCN(C)CCN(Cc2ccc(F)cc2)c2ccccn2)o1 [Example 103]", "experimental-system": "histamine H2 -receptors (Cavia porcellus, UniProt P47747)", "unit-of-measurement": "nM", "Kb": 1200}
{"compound": "CN(C)Cc1ccc(CSCCNC(=C[N+](=O)[O-])NCCCN(C)CCN(Cc2ccc(F)cc2)c2ccccn2)o1 [Example 104]", "experimental-system": "histamine H2 -receptors (Cavia porcellus, UniProt P47747)", "unit-of-measurement": "nM", "Kb": 1350}
{"compound": "COc1ccc(CN(CCN(C)CCCCNC(=O)NCCSCc2csc(NC(=N)N)n2)c2ccccn2)cc1 [Example 88]", "experimental-system": "histamine H2 -receptors (Cavia porcellus, UniProt P47747)", "unit-of-measurement": "nM", "Kb": 219}
{"compound": "CN(CCCCCNC(=NCCSCc1csc(NC(=N)N)n1)NC#N)CCC(c1ccc(Cl)cc1)c1ccccn1 (stereo not shown) [Example 18]", "experimental-system": "histamine H2 -receptors (Cavia porcellus, UniProt P47747)", "unit-of-measurement": "nM", "Kb": 126}

Lab book: Kb of CN(CCCCCCCNC(=O)NCCSCc1csc(NC(=N)N)n1)CCC(c1ccc(Cl)cc1)c1ccccn1 (stereo not shown) [Example 36] noted as 26.9

Lab book: Kb of COc1ccc(CN(CCN(C)CCCCCCNC(=O)NCCCOc2cccc(CN3CCCCC3)c2)c2ccccn2)cc1 [Example 66] noted as 182

Lab book: Kb of CN(CCNC(=NCCCCOc1cccc(CN2CCCCC2)c1)NC#N)CCC(c1ccc(Cl)cc1)c1ccccn1 (stereo not shown) [Example 1] noted as 2290

###

# experimental-system: histamine H1 -receptors (Cavia porcellus, UniProt P31389)
# Construct: isolated guinea pig ileum (H1); from tissue; host or cells: isolated guinea pig ileum
# Sequence (P31389 whole entry): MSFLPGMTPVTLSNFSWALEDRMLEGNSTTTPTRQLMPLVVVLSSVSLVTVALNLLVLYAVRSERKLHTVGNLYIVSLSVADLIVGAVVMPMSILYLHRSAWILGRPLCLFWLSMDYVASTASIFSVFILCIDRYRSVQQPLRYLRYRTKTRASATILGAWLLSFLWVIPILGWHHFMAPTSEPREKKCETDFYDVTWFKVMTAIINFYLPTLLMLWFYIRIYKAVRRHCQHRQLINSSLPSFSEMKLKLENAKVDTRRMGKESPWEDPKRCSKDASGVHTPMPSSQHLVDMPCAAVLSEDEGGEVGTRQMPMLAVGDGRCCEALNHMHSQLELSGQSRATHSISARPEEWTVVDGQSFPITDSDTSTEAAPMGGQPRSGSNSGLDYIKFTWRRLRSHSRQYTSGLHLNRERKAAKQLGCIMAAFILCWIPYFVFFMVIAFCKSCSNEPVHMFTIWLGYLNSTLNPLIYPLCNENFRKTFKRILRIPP
# assay-notes: in vitro histamine H1-antagonism on isolated guinea pig ileum
# condition-notes: cumulative concentration/action curves (van Rossum), read-out: H1 -antagonism ileum -log KB (converted)
Could you please mark label 1 for values of Kb below 4 nM and label 0 for values at or above it?

See these solved cases before continuing.
{"molecule": "CN(CCCCCCCNC(=C[N+](=O)[O-])NCCSCc1csc(NC(=N)N)n1)CCC(c1ccc(Cl)cc1)c1ccccn1 (stereo not shown)", "category": "label 0"}
{"molecule": "CN(CCNC(=NCCCCOc1cccc(CN2CCCCC2)c1)NC#N)CCC(c1ccc(Cl)cc1)c1ccccn1 (stereo not shown)", "category": "label 0"}
{"molecule": "CN(CCCCCCCNC(=NCCSCc1csc(NC(=N)N)n1)NC#N)CCC(c1ccc(Cl)cc1)c1ccccn1 (stereo not shown)", "category": "label 0"}
{"molecule": "CN(CCCCCCNC(=NC#N)NCCSCc1csc(N=C(N)N)n1)CCN(Cc1ccc(F)cc1)c1ccccn1", "category": "label 1"}
{"molecule": "COc1ccc(CN(CCN(C)CCCCCCN=C(NC#N)NCCSCc2csc(NC(=N)N)n2)c2ccccn2)cc1", "category": "label 1"}

Is Kb of CN(CCCCCCCNC(=NCCSCc1csc(NC(=N)N)n1)NC#N)CCN(Cc1ccc(F)cc1)c1ccccn1 strictly below 4 nM?
label 0

Is Kb of COc1ccc(CN(CCN(C)CCCCCCNC(=C[N+](=O)[O-])NCCSCc2csc(NC(=N)N)n2)c2ccccn2)cc1 strictly below 4 nM?
label 1

###

# experimental-system: histamine H2 -receptors (Cavia porcellus)
# Construct: isolated spontaneously beating guinea pig right atrium (H2); from tissue; host or cells: isolated spontaneously beating guinea pig right atrium
# assay-notes: in vitro histamine H2-antagonism on isolated spontaneously beating guinea pig right atrium
# condition-notes: cumulative concentration/action curves (van Rossum), read-out: H2 -antagonism atrium -log KB (converted)
Listed here are compounds together with their documented log10(Kb).
Hello, just confirming the data are log10 of Kb with units of nM.

{"compound": "CN(CCCCCCNC(=NCCCOc1cccc(CN2CCCCC2)c1)NC#N)CCN(Cc1ccc(F)cc1)c1ccccn1 [Example 60]", "experimental-system": "histamine H2 -receptors (Cavia porcellus)", "log10(Kb)": 2.59}
{"compound": "COc1ccc(CN(CCN(C)CCCCCCNC(=O)NCCSCc2csc(NC(=N)N)n2)c2ccccn2)cc1 [Example 89]", "experimental-system": "histamine H2 -receptors (Cavia porcellus)", "log10(Kb)": 2.24}

Lab book: log10(Kb) of CN(CCCCNC(=NCCSCc1csc(NC(=N)N)n1)NC#N)CCC(c1ccc(Cl)cc1)c1ccccn1 (stereo not shown) [Example 17] noted as 2.22

Lab book: log10(Kb) of CN(CCCNC(=O)NCCCOc1cccc(CN2CCCCC2)c1)CCC(c1ccc(F)cc1)c1ccccn1 (stereo not shown) [Example 30] noted as 2.32

Lab book: log10(Kb) of CN(CCCCCNC(=O)NCCCOc1cccc(CN2CCCCC2)c1)CCN(Cc1ccc(F)cc1)c1ccccn1 [Example 70] noted as 2.13

Lab book: log10(Kb) of CN(CCCCNC(=NCCCOc1cccc(CN2CCCCC2)c1)NC#N)CCC(c1ccccc1)c1ccccn1 (stereo not shown) [Example 9] noted as 2.70

Lab book: log10(Kb) of CN(CCCCCCCNC(=O)NCCCOc1cccc(CN2CCCCC2)c1)CCN(Cc1ccc(F)cc1)c1ccccn1 [Example 72] noted as 1.65

###

# experimental-system: histamine H1 -receptors (Cavia porcellus, UniProt P31389)
# Construct: isolated guinea pig ileum (H1); from tissue; host or cells: isolated guinea pig ileum
# assay-notes: in vitro histamine H1-antagonism on isolated guinea pig ileum
# condition-notes: cumulative concentration/action curves (van Rossum), read-out: H1 -antagonism ileum -log KB (converted)
recorded-endpoint: Kb (nM)
Express your answer in nM, writing the number without its unit.

{"compound": "CN(CCCCCCNC(=O)NCCSCc1csc(NC(=N)N)n1)CCN(Cc1ccc(F)cc1)c1ccccn1 [Example 94]", "recorded-endpoint": "Kb", "unit-of-measurement": "nM", "recorded-number": 1.58}
{"compound": "COc1ccc(CN(CCN(C)CCCCCCNC(=NCCCOc2cccc(CN3CCCCC3)c2)NC#N)c2ccccn2)cc1 [Example 55]", "recorded-endpoint": "Kb", "unit-of-measurement": "nM", "recorded-number": 7.24}
{"compound": "CN(CCCNC(=O)NCCCOc1cccc(CN2CCCCC2)c1)CCC(c1ccc(F)cc1)c1ccccn1 (stereo not drawn) [Example 30]", "recorded-endpoint": "Kb", "unit-of-measurement": "nM", "recorded-number": 6.17}
{"compound": "CN(CCCNC(=NCCCOc1cccc(CN2CCCCC2)c1)NC#N)CCC(c1ccccc1)c1ccccn1 (stereo not drawn) [Example 10]", "recorded-endpoint": "Kb", "unit-of-measurement": "nM", "recorded-number": 6.46}
{"compound": "COc1ccc(CN(CCN(C)CCCCCCNC(=O)NCCSCc2csc(NC(=N)N)n2)c2ccccn2)cc1 [Example 89]", "recorded-endpoint": "Kb", "unit-of-measurement": "nM", "recorded-number": 1.74}
{"compound": "CN(CCCCCCCNC(=O)NCCSCc1csc(NC(=N)N)n1)CCC(c1ccc(Cl)cc1)c1ccccn1 (stereo not drawn) [Example 36]", "recorded-endpoint": "Kb", "unit-of-measurement": "nM", "recorded-number": 5.37}

Lab book: Kb of CN(CCCCCCNC(=NCCCOc1cccc(CN2CCCCC2)c1)NC#N)CCN(Cc1ccc(F)cc1)c1ccccn1 [Example 60] noted as 8.71

Lab book: Kb of COc1ccc(CN(CCN(C)CCCCCCNC(=C[N+](=O)[O-])NCCCOc2cccc(CN3CCCCC3)c2)c2ccccn2)cc1 [Example 75] noted as 12.3

###

# experimental-system: histamine H2 -receptors (Cavia porcellus, UniProt P47747)
# Construct: isolated spontaneously beating guinea pig right atrium (H2); from tissue; host or cells: isolated spontaneously beating guinea pig right atrium
# assay-notes: in vitro histamine H2-antagonism on isolated spontaneously beating guinea pig right atrium
# condition-notes: cumulative concentration/action curves (van Rossum), read-out: H2 -antagonism atrium -log KB (converted)
Listed here are compounds together with their documented Kb.
Express your answer in nM, writing the number without its unit.

Here is how some compounds turned out for Kb.
{"compound": "CN(CCCCCCNC(=O)NCCSCc1csc(NC(=N)N)n1)CCC(c1ccc(Cl)cc1)c1ccccn1 (stereo not drawn)", "unit-of-measurement": "nM", "recorded-number": 123}
{"compound": "CN(CCCCCCCNC(=C[N+](=O)[O-])NCCSCc1csc(NC(=N)N)n1)CCC(c1ccc(Cl)cc1)c1ccccn1 (stereo not drawn)", "unit-of-measurement": "nM", "recorded-number": 12.6}
{"compound": "CN(CCCCCCCNC(=NCCSCc1csc(NC(=N)N)n1)NC#N)CCN(Cc1ccc(F)cc1)c1ccccn1", "unit-of-measurement": "nM", "recorded-number": 95.5}

Lab book: Kb of COc1ccc(CN(CCN(C)CCCCCCN=C(NC#N)NCCSCc2csc(NC(=N)N)n2)c2ccccn2)cc1 noted as 245

Lab book: Kb of CN(CCCCCCNC(=NC#N)NCCSCc1csc(N=C(N)N)n1)CCN(Cc1ccc(F)cc1)c1ccccn1 noted as 302

Lab book: Kb of CN(CCCCCCCNC(=S)NCCSCc1csc(NC(=N)N)n1)CCC(c1ccc(Cl)cc1)c1ccccn1 (stereo not drawn) noted as 60.3

Lab book: Kb of COc1ccc(CN(CCN(C)CCCCCCNC(=C[N+](=O)[O-])NCCCOc2cccc(CN3CCCCC3)c2)c2ccccn2)cc1 noted as 123

Lab book: Kb of CN(CCCCCCCCNC(=O)NCCSCc1csc(NC(=N)N)n1)CCC(c1ccc(Cl)cc1)c1ccccn1 (stereo not drawn) noted as 39.8

Lab book: Kb of CN(CCCCCCCNC(=NCCSCc1csc(NC(=N)N)n1)NC#N)CCC(c1ccc(Cl)cc1)c1ccccn1 (stereo not drawn) noted as 30.9

Lab book: Kb of CN(CCCCCCNC(=O)NCCSCc1csc(NC(=N)N)n1)CCN(Cc1ccc(F)cc1)c1ccccn1 noted as 141

Lab book: Kb of Cc1[nH]cnc1CSCCNC(=O)NCCCN(C)CCC(c1ccc(Cl)cc1)c1ccccn1 (stereo not drawn) noted as 6460

Lab book: Kb of COc1ccc(CN(CCN(C)CCCCCCNC(=NCCCOc2cccc(CN3CCCCC3)c2)NC#N)c2ccccn2)cc1 noted as 372

Lab book: Kb of COc1ccc(CN(CCN(C)CCCCCCNC(=C[N+](=O)[O-])NCCSCc2csc(NC(=N)N)n2)c2ccccn2)cc1 noted as 5.25

Lab book: Kb of CC(C1=C(CCN(C)CCCCCCNC(=C[N+](=O)[O-])NCCSCc2csc(N=C(N)N)n2)Cc2ccccc21)c1ccccn1 (stereo not drawn) noted as 28.8

Lab book: Kb of CN(CCCNC(=NCCCOc1cccc(CN2CCCCC2)c1)NC#N)CCC(c1ccccc1)c1ccccn1 (stereo not drawn) noted as 1480
